Where do the numbers come from? From patent US20100004222A1.

- TARGET OF ASSAY: VR1 (Homo sapiens)
- Sequence (Q8NER1 whole entry, species assumed): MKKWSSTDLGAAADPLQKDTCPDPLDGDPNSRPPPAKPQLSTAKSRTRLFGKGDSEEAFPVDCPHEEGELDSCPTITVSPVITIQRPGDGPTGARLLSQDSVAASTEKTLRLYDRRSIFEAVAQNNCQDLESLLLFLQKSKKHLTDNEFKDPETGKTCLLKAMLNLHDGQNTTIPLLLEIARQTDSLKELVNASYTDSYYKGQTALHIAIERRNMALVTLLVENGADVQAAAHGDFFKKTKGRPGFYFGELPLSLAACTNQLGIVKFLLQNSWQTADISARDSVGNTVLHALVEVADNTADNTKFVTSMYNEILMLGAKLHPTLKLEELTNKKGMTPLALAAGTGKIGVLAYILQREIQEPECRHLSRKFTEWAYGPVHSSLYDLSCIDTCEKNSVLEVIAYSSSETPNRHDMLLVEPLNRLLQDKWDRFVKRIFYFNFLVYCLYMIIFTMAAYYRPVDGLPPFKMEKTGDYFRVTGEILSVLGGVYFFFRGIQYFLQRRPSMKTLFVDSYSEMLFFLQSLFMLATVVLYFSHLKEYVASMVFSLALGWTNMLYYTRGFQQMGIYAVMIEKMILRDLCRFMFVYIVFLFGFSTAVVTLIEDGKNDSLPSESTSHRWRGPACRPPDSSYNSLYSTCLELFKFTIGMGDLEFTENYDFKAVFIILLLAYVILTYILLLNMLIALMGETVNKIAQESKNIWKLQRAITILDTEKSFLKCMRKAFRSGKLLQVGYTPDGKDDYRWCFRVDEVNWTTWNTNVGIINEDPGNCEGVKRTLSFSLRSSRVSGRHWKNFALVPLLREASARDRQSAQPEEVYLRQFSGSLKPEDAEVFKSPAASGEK
- ASSAY OVERVIEW: Acid stimulation assay (FDSS 6000)
- MEASUREMENT CONTEXT: final assay buffer pH5.8, 15 min pre-incubation
Known pIC50 of a selection of molecules
In textbook form, pIC50 equals minus log to base ten of the concentration in mol/L.

Solved entries:
Cc1cc(/C=C/C(F)(F)F)ccc1C(=O)Nc1cccc2ccc(O)cc12 :: 9.00
Cc1cc(/C=C/C(F)(F)F)ccc1C(=O)Nc1cnc2cc(CO)cnc2c1 :: 7.96
Cc1cc(/C=C/C(F)(F)F)ccc1C(=O)Nc1ccc2sc(C(C)(C)O)nc2c1 :: 7.23

# pIC50 (molecule: "Cc1cc(/C=C/C(F)(F)F)ccc1C(=O)Nc1cnc2cccnc2c1" ) is 8.52

The molecule identified as "CC(=O)c1nc2cc(NC(=O)c3ccc(/C=C/C(F)(F)F)cc3C)ccc2s1" registered its pIC50 at 6.15
